- System: HeLa
- assay-details: Antiproliferative activity against human HeLa cells at 10 ug/ml after 72 hrs by MTT assay
- Assay type: cell-based
Decision: Activity >= 30% yields MET, all other cases yield NOT MET.

Ask | Has O=C1CSc2ccccc2N1Cc1cn(Cc2cccc([N+](=O)[O-])c2)nn1 a recorded Activity greater than or equal to 30%?
Reply | NOT MET

Ask | Has O=C1CSc2ccccc2N1Cc1cn(Cc2ccc(F)cc2)nn1 a recorded Activity greater than or equal to 30%?
Reply | MET

Ask | Has O=C1CSc2ccccc2N1Cc1cn(Cc2cccc(Cl)c2)nn1 a recorded Activity greater than or equal to 30%?
Reply | MET

Ask | Has O=C1CSc2ccccc2N1Cc1cn(Cc2ccc(Br)cc2)nn1 a recorded Activity greater than or equal to 30%?
Reply | MET

Ask | Has O=C1CSc2ccccc2N1Cc1cn(-c2cccc([N+](=O)[O-])c2)nn1 a recorded Activity greater than or equal to 30%?
Reply | NOT MET

Ask | Has O=C1CSc2ccccc2N1Cc1cn(Cc2ccccc2Cl)nn1 a recorded Activity greater than or equal to 30%?
Reply | MET

Ask | Has O=C1CSc2ccccc2N1Cc1cn(Cc2ccccc2)nn1 a recorded Activity greater than or equal to 30%?
Reply | NOT MET

Ask | Has O=C1CSc2ccccc2N1Cc1cn(Cc2ccc([N+](=O)[O-])cc2)nn1 a recorded Activity greater than or equal to 30%?
Reply | MET

Ask | Has O=C1CSc2ccccc2N1Cc1cn(-c2ccc([N+](=O)[O-])cc2)nn1 a recorded Activity greater than or equal to 30%?
Reply | NOT MET

----------
- System: A-431
- assay-details: Antiproliferative activity against human A431 cells at 30 ug/ml after 48 hrs by MTT assay
- Assay type: cell-based
- conditions-used: a-431, 48 h
The label is true for Activity below 40% and false for Activity equal to or exceeding 40%.

Ask | In the record for O=C1CSc2ccccc2N1Cc1cn(Cc2ccc(F)cc2)nn1 , is Activity less than 40%?
Reply | false

Ask | In the record for O=C1CSc2ccccc2N1Cc1cn(-c2cccc([N+](=O)[O-])c2)nn1 , is Activity less than 40%?
Reply | true

Ask | In the record for O=C1CSc2ccccc2N1Cc1cn(Cc2ccc([N+](=O)[O-])cc2)nn1 , is Activity less than 40%?
Reply | false

Ask | In the record for O=C1CSc2ccccc2N1Cc1cn(Cc2ccccc2Cl)nn1 , is Activity less than 40%?
Reply | true

Ask | In the record for O=C1CSc2ccccc2N1Cc1cn(-c2ccc([N+](=O)[O-])cc2)nn1 , is Activity less than 40%?
Reply | true

Ask | In the record for O=C1CSc2ccccc2N1Cc1cn(Cc2cccc([N+](=O)[O-])c2)nn1 , is Activity less than 40%?
Reply | true

Ask | In the record for O=C1CSc2ccccc2N1Cc1cn(Cc2ccc(Cl)cc2)nn1 , is Activity less than 40%?
Reply | false

Ask | In the record for O=C1CSc2ccccc2N1Cc1cn(Cc2ccc(Br)cc2)nn1 , is Activity less than 40%?
Reply | true

Ask | In the record for O=C1CSc2ccccc2N1Cc1cn(Cc2cccc(Cl)c2)nn1 , is Activity less than 40%?
Reply | true

Ask | In the record for O=C1CSc2ccccc2N1Cc1cn(Cc2ccccc2)nn1 , is Activity less than 40%?
Reply | true
